Hello, the source for this data is ChEMBL document CHEMBL1159182, in case you need it.

testedOn: Sodium-dependent dopamine transporter (Homo sapiens, UniProt Q01959)
Sequence (Q01959 whole entry): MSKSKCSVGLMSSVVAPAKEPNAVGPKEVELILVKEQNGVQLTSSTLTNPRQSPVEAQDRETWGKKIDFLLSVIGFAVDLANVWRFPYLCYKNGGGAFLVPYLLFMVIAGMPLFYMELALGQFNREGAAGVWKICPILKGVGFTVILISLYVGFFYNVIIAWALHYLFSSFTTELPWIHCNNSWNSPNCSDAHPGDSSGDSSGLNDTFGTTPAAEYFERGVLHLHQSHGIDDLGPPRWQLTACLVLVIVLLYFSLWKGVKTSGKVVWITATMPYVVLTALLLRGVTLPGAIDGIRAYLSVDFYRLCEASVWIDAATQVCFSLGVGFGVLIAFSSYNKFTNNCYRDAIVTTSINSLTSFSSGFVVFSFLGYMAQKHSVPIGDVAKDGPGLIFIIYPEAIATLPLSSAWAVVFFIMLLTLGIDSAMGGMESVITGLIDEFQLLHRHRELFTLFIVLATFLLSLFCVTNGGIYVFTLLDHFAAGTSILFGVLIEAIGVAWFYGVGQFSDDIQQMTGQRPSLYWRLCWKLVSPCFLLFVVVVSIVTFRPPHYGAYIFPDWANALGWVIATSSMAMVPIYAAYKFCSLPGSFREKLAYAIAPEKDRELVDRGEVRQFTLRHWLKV
testProtocol: Ability to displace [3H]mazindol from dopamine transporter
measuredParameter: pIC50
Please keep in mind that pIC50 is minus log10 of the molar concentration; only the number is needed.

What value of measured pIC50 is listed for COC(=O)C1C2CC[C@H](C[C@@H]1c1ccc(Cl)cc1)N2C (stereo partly specified) ?
8.77

###

testedOn: Sodium-dependent dopamine transporter (Homo sapiens, UniProt Q01959)
testProtocol: Inhibitory concentration against [3H]dopamine uptake
Format: functional
# satisfied = IC50 below 3 nM (exclusive); not satisfied = IC50 at/above 3 nM

compound="CN1C2CCC1[C@@H](/C=C/Cl)[C@@H](c1ccc(Cl)cc1)C2 (stereo in doubt; 5)" testedon="Sodium-dependent dopamine transporter (Homo sapiens, UniProt Q01959)" classassignment=satisfied
compound="CN1C2CCC1[C@H](C(O)C(F)(F)F)[C@@H](c1ccc(Cl)cc1)C2 (stereo in doubt; 13)" testedon="Sodium-dependent dopamine transporter (Homo sapiens, UniProt Q01959)" classassignment="not satisfied"
compound="CN1C2CCC1[C@@H]([C@@H](O)C(F)(F)F)[C@@H](c1ccc(Cl)cc1)C2 (some centres undefined)" testedon="Sodium-dependent dopamine transporter (Homo sapiens, UniProt Q01959)" classassignment="not satisfied"
compound="CN1C2CCC1[C@H](C(O)C(F)(F)F)[C@@H](c1ccc(Cl)cc1)C2 (stereo in doubt; 12)" testedon="Sodium-dependent dopamine transporter (Homo sapiens, UniProt Q01959)" classassignment="not satisfied"
compound="COC(=O)C1C2CC[C@H](C[C@@H]1c1ccc(Cl)cc1)N2C (some centres undefined)" testedon="Sodium-dependent dopamine transporter (Homo sapiens, UniProt Q01959)" classassignment="not satisfied"

Just wondering, is IC50 of C=C[C@@H]1C2CCC(C[C@@H]1c1ccc(Cl)cc1)N2C (some centres undefined) below 3 nM?
satisfied

Please indicate whether the reported IC50 of CN1C2CCC1[C@H](C(=O)C(F)(F)F)[C@@H](c1ccc(Cl)cc1)C2 (some centres undefined) is strictly below 3 nM.
not satisfied

In plain terms, does CN1C2CCC1[C@@H](/C=C/Cl)[C@@H](c1ccc(Cl)cc1)C2 (stereo in doubt; 4) come in under 3 nM for IC50?
satisfied

Quick check: does CC[C@@H]1C2CCC(C[C@@H]1c1ccc(Cl)cc1)N2C (some centres undefined) have IC50 under 3 nM?
satisfied
